biological target: human ether-à-go-go-related gene (hERG) potassium channel (human); assay: primary screen, population patch clamp on CHO cells stably expressing hERG; higher = less effect of the substance
Screen size: about 310,000 compounds; about 2,200 (0.71%) showed an effect of 50% or more. The effect is printed as a negative number. Shown is part of a subset that was picked to be rich in strong results.
Measurement type: hERG current change (%, negative = inhibition) at 1uM (%)

>>> print(df.to_string())
                                    compound                        measurement_target  numeric_readout
 0  O=C(COC(=O)CCCOc1ccc(Cl)cc1Cl)NCc1ccccc1  human ether-à-go-go-related gene (hERG) potassium channel (human)             1.55
 1  CCOc1ccc2nc(C)cc(Nc3ccc4c(c3)OCCO4)c2c1.Cl  human ether-à-go-go-related gene (hERG) potassium channel (human)              -47
 2  O=C(NC1CCN(Cc2ccccc2)CC1)C1CCN(c2nnc(-n3cccc3)s2)CC1  human ether-à-go-go-related gene (hERG) potassium channel (human)            -28.2
 3       Cc1cccc(C(=O)NCCC(=O)NCc2ccccc2F)c1  human ether-à-go-go-related gene (hERG) potassium channel (human)             5.88
 4  Cc1ccc(C(OCC(O)CN2CCCCC2)c2ccccc2)cc1 (stereo not drawn)  human ether-à-go-go-related gene (hERG) potassium channel (human)            -68.6
 5    Fc1cccc(CCN2C(=S)NC[C@@H]2CC2CCCCC2)c1  human ether-à-go-go-related gene (hERG) potassium channel (human)             8.53
 6  COc1ccc(-c2cc(-c3ccc(C)cc3)nc(SCc3nnc(-c4ccccc4)o3)c2C#N)cc1OC  human ether-à-go-go-related gene (hERG) potassium channel (human)             8.98
 7  O=C(O)C(=O)O.OC(COC(c1ccc(F)cc1)c1ccc(F)cc1)CN1CCCC1 (stereo not drawn)  human ether-à-go-go-related gene (hERG) potassium channel (human)              -62
 8  O=C(NC1CCN(Cc2ccccc2)CC1)C1CCCN(c2nnc(-n3cccc3)s2)C1 (stereo not drawn)  human ether-à-go-go-related gene (hERG) potassium channel (human)            -65.2
 9  Cc1cc(=O)oc2cc(OC(C)C(=O)NC3CCN(Cc4ccccc4)CC3)ccc12 (stereo not drawn)  human ether-à-go-go-related gene (hERG) potassium channel (human)            -52.6
10      CCOC(=O)c1ccc(NC(=O)Nc2cccc(C)n2)cc1  human ether-à-go-go-related gene (hERG) potassium channel (human)               10
11             CC(=O)NC(=S)NNC(=O)CCc1ccccc1  human ether-à-go-go-related gene (hERG) potassium channel (human)             6.91
12  CC(C)Cc1ccc(C(C)C(N)=Nc2ccc(O)cc2)cc1.Cl (stereo not drawn)  human ether-à-go-go-related gene (hERG) potassium channel (human)            -71.8
13  COc1ccc(NC(=O)CSc2n[nH]c(-c3ccccn3)n2)cc1  human ether-à-go-go-related gene (hERG) potassium channel (human)               13
14  COc1cccc(NC(=O)Nc2nnc(-c3ccccc3SCc3ccccc3)s2)c1  human ether-à-go-go-related gene (hERG) potassium channel (human)             2.04
15      O=C(NCCCN1CCOCC1)c1sc2cc(Cl)ccc2c1Cl  human ether-à-go-go-related gene (hERG) potassium channel (human)             6.47
16  CC(C)Cc1ccc(C(C)C(=N)N)cc1.Cl (stereo not drawn)  human ether-à-go-go-related gene (hERG) potassium channel (human)             10.2
17            Cc1[nH][nH]c(=O)c1C=NCc1cccnc1  human ether-à-go-go-related gene (hERG) potassium channel (human)             14.3
18  CC(CCc1ccccc1)NC(=O)C1CCCN(c2nnc(-n3cccc3)s2)C1 (stereo not drawn)  human ether-à-go-go-related gene (hERG) potassium channel (human)            -7.23
19                  Cn1cnc([N+](=O)[O-])c1Cl  human ether-à-go-go-related gene (hERG) potassium channel (human)               11
20  CC(Oc1ccccc1)C(=O)NC1CCN(Cc2ccccc2)CC1 (stereo not drawn)  human ether-à-go-go-related gene (hERG) potassium channel (human)            -5.84
21  CC(Oc1ccc2ccc(=O)oc2c1)C(=O)NC1CCN(Cc2ccccc2)CC1 (stereo not drawn)  human ether-à-go-go-related gene (hERG) potassium channel (human)            -38.3
22   O=C1c2ccccc2C(=O)c2c1cccc2N1CCN(CCO)CC1  human ether-à-go-go-related gene (hERG) potassium channel (human)            -64.7
23  CC(C)Cc1ccc(C(C)C(N)=NCCc2ccccc2)cc1.Cl (stereo not drawn)  human ether-à-go-go-related gene (hERG) potassium channel (human)              -16
24  CSCCC(=O)N1CCC(n2nccc2NC(=O)CCc2ccccc2)CC1  human ether-à-go-go-related gene (hERG) potassium channel (human)             5.02
25  COc1ccc2nc(C)cc(Nc3ccc(N4CCOCC4)cc3)c2c1.Cl  human ether-à-go-go-related gene (hERG) potassium channel (human)            -25.1
26  OC(COC(c1ccccc1)c1ccccc1)CN1CCCCC1 (stereo not drawn)  human ether-à-go-go-related gene (hERG) potassium channel (human)            -18.5
27          CCOC(=O)CSc1nnc(COc2cccc(C)c2)o1  human ether-à-go-go-related gene (hERG) potassium channel (human)             10.6
28  COc1ccc(CCNC(=O)c2ccc3nc(N4CCOCC4)sc3c2)cc1OC  human ether-à-go-go-related gene (hERG) potassium channel (human)             4.99
29  S=c1[nH]nc(-c2cc(-c3ccco3)[nH]n2)n1-c1ccccc1  human ether-à-go-go-related gene (hERG) potassium channel (human)             3.15
30  CC(Oc1ccc(Br)cc1)C(=O)NC1CCN(Cc2ccccc2)CC1 (stereo not drawn)  human ether-à-go-go-related gene (hERG) potassium channel (human)            -59.6
31  COc1ccc(N2CCN(CC(O)COC(c3ccccc3)c3ccccc3)CC2)cc1 (stereo not drawn)  human ether-à-go-go-related gene (hERG) potassium channel (human)            -14.2
32  CCOc1cc(C)ccc1OCc1nnc(SCC(=O)c2cccc([N+](=O)[O-])c2)n1CC  human ether-à-go-go-related gene (hERG) potassium channel (human)            -1.84
33  COCC1OS(=O)(=O)NC(CC(=O)SC(C)(C)C)C1C (stereo not drawn)  human ether-à-go-go-related gene (hERG) potassium channel (human)             9.98
34  CCN1CCN(C(=O)c2cc3c(=O)n(C)c4ccccc4c3n2C)CC1  human ether-à-go-go-related gene (hERG) potassium channel (human)             8.54
35  CC(C)(C)OC(=O)NC(CNCc1ccccc1)Cc1ccccc1 (stereo not drawn)  human ether-à-go-go-related gene (hERG) potassium channel (human)             3.93
36               Cc1cccc(OCC(=O)Nc2ccncc2)c1  human ether-à-go-go-related gene (hERG) potassium channel (human)             6.41
37  Cc1cc(=O)[nH]c(N/N=C/c2c[nH]c3ccccc23)n1  human ether-à-go-go-related gene (hERG) potassium channel (human)             9.01
38  CC(=O)n1cc(/C=N/NC(=O)c2cccc(O)c2)c2ccccc21  human ether-à-go-go-related gene (hERG) potassium channel (human)             13.7
39  CC(C)Oc1ccc(C(=O)NC2CCN(Cc3ccccc3)CC2)cc1  human ether-à-go-go-related gene (hERG) potassium channel (human)              -21
40  CC(C1CC1)N(Cc1ccccc1)C(=S)Nc1ccccc1Cl (stereo not drawn)  human ether-à-go-go-related gene (hERG) potassium channel (human)             3.13
41  O=C(O)C(=O)O.OC1CCCN(CC(O)COC(c2ccc(F)cc2)c2ccc(F)cc2)C1 (stereo not drawn)  human ether-à-go-go-related gene (hERG) potassium channel (human)            -14.2

---

biological target: human ether-à-go-go-related gene (hERG) potassium channel (human, UniProt Q12809); assay: primary screen, population patch clamp on CHO cells stably expressing hERG; higher = less effect of the substance
Sequence (Q12809 whole entry, looked up): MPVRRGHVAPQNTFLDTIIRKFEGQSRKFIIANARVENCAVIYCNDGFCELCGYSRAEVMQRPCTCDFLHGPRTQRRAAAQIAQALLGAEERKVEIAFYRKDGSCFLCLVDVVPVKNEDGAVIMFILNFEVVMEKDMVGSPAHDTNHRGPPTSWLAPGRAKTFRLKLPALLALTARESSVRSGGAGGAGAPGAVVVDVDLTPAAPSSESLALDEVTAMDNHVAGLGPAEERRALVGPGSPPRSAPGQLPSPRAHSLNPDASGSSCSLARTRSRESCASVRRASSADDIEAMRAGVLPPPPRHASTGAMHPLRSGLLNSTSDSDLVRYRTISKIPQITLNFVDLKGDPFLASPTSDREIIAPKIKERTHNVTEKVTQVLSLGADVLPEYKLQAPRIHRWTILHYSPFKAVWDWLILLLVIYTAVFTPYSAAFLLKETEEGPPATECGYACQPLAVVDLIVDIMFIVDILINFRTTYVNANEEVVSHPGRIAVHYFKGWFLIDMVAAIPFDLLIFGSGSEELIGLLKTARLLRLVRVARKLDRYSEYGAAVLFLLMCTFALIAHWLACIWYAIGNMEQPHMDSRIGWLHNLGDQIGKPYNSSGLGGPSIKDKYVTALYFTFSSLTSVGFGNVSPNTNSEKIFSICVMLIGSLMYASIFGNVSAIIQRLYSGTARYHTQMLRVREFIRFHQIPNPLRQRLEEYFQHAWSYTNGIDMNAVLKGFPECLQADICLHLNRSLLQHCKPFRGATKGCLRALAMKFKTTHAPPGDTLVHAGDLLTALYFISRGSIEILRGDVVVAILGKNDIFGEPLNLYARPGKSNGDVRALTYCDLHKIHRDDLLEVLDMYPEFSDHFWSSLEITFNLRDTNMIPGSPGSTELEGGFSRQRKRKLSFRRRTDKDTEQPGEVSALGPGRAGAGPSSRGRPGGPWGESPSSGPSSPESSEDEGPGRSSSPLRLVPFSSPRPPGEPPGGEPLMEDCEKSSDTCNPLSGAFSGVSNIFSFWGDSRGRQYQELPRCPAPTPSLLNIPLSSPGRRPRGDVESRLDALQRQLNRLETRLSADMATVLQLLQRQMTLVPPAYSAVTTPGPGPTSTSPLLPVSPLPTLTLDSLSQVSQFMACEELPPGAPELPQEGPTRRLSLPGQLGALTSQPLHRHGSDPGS
About 2,200 (0.71%) of roughly 310,000 compounds showed an effect of 50% or more. Effects have a minus sign here. Many of the other results were omitted from the sample, so strong results are more common in it than they were.
Measurement type: hERG current change (%, negative = inhibition) at 1uM (%)

                                    compound  numeric_readout
 0  CC(=O)[O-].[K+].c1ccc2c(c1)OCCOCCOc1ccccc1OCCOCCO2            -80.7
 1  CCN1CCN(CC2COc3ccccc3O2)CC1.Cl (stereo not drawn)             7.79
 2  CCC(CCC(=O)Nc1ccn(-c2ccccc2)n1)C(=O)O (stereo not drawn)             7.09
 3  CN1C(=O)C2(C(C#N)=C(N)Oc3c2oc(CO)cc3=O)c2ccccc21 (stereo not drawn)               12
 4    Cc1cc(C)nc(/N=C(\N)Nc2ccc(C(C)C)cc2)n1            -3.29
 5  CCN(CC)c1ccc(/C=C/c2ccc3ccc(OC)cc3[n+]2CC)cc1.[I-]              -85
 6  Cc1cc2nc(C3CCN(Cc4nnnn4Cc4cccs4)CC3)[nH]c2cc1C            -72.4
 7  O=C(NCc1cccnc1)c1ccc(CS(=O)(=O)Cc2ccc(Cl)cc2)o1             3.03
 8                    c1ccc2c(c1)OCCOCCOCCO2             13.2
 9       COc1cc(/C=c2\sc3n(c2=O)CCCN=3)ccc1O             13.5
10  CCCN1CCN(C(=O)c2ccc(-c3ccc([N+](=O)[O-])cc3)o2)CC1            -70.1
11                 C/C(=N\O)c1ccc2c(c1)OCCO2             12.6
12  CCC(O)(CCN1CCCCC1)c1ccccc1 (stereo not drawn)             3.27
13  CCC(C)(C)n1nnnc1C(c1cc2ccc(OC)cc2[nH]c1=O)N1CCc2ccccc21 (stereo not drawn)             6.76
14  COc1cccc(C2c3[nH]c4ccccc4c3C[C@H]3C(=O)N(C)CC(=O)N23)c1 (stereo partly drawn)            -1.14
15  CCCC(O)(CCN1CCOCC1)c1ccc(Cl)cc1 (stereo not drawn)             6.26
16  O=S(=O)(NC1CCC(NS(=O)(=O)c2c(F)cccc2F)CC1)c1ccc2c(c1)OCCO2 (stereo not drawn)             10.7
17  O=C(c1ccc(-c2ccc([N+](=O)[O-])cc2)o1)N1CCCCC1            -10.5
18  CC(C)c1csc(CN2CCC(N3CCC(C(=O)NCC4CCCO4)CC3)CC2)n1 (stereo not drawn)             9.96
19  COc1cccc(N2CCN(C(=O)c3nc4nc(C)cc(C)n4n3)CC2)c1             8.37
20  Br.COC(=O)c1ccc(OCCN2C3=NCCN3c3ccccc32)cc1            -56.5
21  Cc1cc(C)n2nc(C(=O)N3CCN(c4ccc([N+](=O)[O-])cc4)CC3)nc2n1            -77.6
22              CC(=O)c1ccc2c(c1)OCCOCCOCCO2             12.3
23  Cc1cc2nc(C3CCN(Cc4nnnn4Cc4ccccc4)CC3)[nH]c2cc1C            -50.7
24  CCCOc1ccc(C(O)(CCC)CCN2CCCCC2)cc1 (stereo not drawn)            -25.4
25  COc1cccc(NC(=O)CN(C)C(=O)c2ccccc2Sc2ccccc2C#N)c1             8.02
26      CCCCCCCN1C(N(C)C)=NC[C@@H]1Cc1ccccc1              -69
27  C/C(=N/O)c1ccc2c(c1)OCCOCCOc1cc(/C(C)=N/O)ccc1OCCOCCO2            -79.7
28       Cl.c1ccc(OCCN2C3=NCCN3c3ccccc32)cc1            -51.5
29    CN(C)C1=NC[C@H](Cc2ccccc2)N1CCCC1CCCC1            -56.8
30  Cc1ccc(C(=O)N2CCN(c3ccc([N+](=O)[O-])cc3)CC2)o1              -79
31  O=C(c1ccc(-c2ccc([N+](=O)[O-])cc2)o1)N1CCCCCCC1            -6.48
32  CC[n+]1c(/C=C/c2ccc(N(C)C)cc2)ccc2ccccc21.[I-]              -27
33  O=C(c1ccc2nsnc2c1)N1CCN(c2ccc([N+](=O)[O-])cc2)CC1            -57.4
34  CCCCCC(O)(CCN1CCCCC1)c1ccccc1.Cl (stereo not drawn)            -84.7
35             Cl.c1ccc(Cn2nnnc2CN2CCCC2)cc1             10.1
36  Cc1cc(=O)[nH]c(/N=C(\N)Nc2ccc(SC(F)F)cc2)n1             1.96
37   Cc1cc(C)nc(/N=C(\N)Nc2ccc(SC(F)F)cc2)n1            -52.9
38  CN(C)C1=NC[C@H](Cc2ccccc2)N1CCCCc1ccccc1            -42.2
39   CN(C)C1=NC[C@H](Cc2ccccc2)N1CCCC1CCCCC1            -29.5
40       O=C(c1ccccc1)c1ccc2c(c1)OCCOCCOCCO2             8.88
41  Cc1cc2nc(C3CCN(CC4COc5ccccc5O4)CC3)[nH]c2cc1C (stereo not drawn)            -65.6

Reference source: paper PMC4336329
